Test: protein stability index of a GFP-peptide fusion (GPS, HEK-293T) (PSI 1-6); higher = more stable;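 also: 24-mer peptide tiles fused after GFP, lentivirally expressed, FACS-sorted into six equal bins by GFP/DsRed ratio, decoded by Illumina sequencing, PSI is the read-weighted mean bin number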
Conditions: treatment: DMSO; c terminus: a fixed tail appended
Tick true if protein stability index is 3 or greater. Tick false if protein stability index is less than 3.

Field: example entries. Status: answers known.
residues	classLabel
LCGENFSHRSNLIRHQRIHTGEKP [ZNF263]	true
HRWQVDLQLGDGGGCTVGVAGEGV [TRIM15]	true

Then this sequence:
Ask: Has VSQWYELVVFTASMEIYGSAVADK [CTDNEP1] a recorded protein stability index greater than or equal to 3?
Reply: true

* * *

Test: protein stability index of a GFP-peptide fusion (GPS, HEK-293T) (PSI 1-6); higher = more stable
Conditions: treatment: DMSO; c terminus: a fixed tail appended
Tick Yes if protein stability index is 3 or greater. Tick No if protein stability index is less than 3.

Field: example entries. Status: answers known.
residues	classLabel
VSDPQHAARLLRALSSFREESRFC [GAN]	No
YSWNNRCMVEIVQKYDPDKDEWHK [KLHL13]	No
SVTDVTTSSLRLNWEAPPGAFDSF [TNXB]	Yes

Ask: Has DEYQYSFWDLFRSKDNMRTRIMIG [SLC2A12] a recorded protein stability index greater than or equal to 3?
Reply: No

Ask: Has AAMLRGQSDVGVAVFENKIYVVGG [KLHL13] a recorded protein stability index greater than or equal to 3?
Reply: No

Ask: Has KMETMYPFIVTLEGNALQGPILQK [ZNF449] a recorded protein stability index greater than or equal to 3?
Reply: No

Ask: Has QDLLDVIRIKLDPCHPTVKNWRNF [EDARADD] a recorded protein stability index greater than or equal to 3?
Reply: No

Ask: Has DPGHCFAESRELPVRCAGDWLPRG [ALG2] a recorded protein stability index greater than or equal to 3?
Reply: Yes

Ask: Has PENGEIKPASKPAGSSHTPSSQSS [ELOA2] a recorded protein stability index greater than or equal to 3?
Reply: Yes

Ask: Has EDITKGTQSLPTASASKFPSSGPV [AUP1] a recorded protein stability index greater than or equal to 3?
Reply: Yes

Ask: Has SLNMSRRDSESTRHDSETEDMLWD [PHTF1] a recorded protein stability index greater than or equal to 3?
Reply: Yes

Ask: Has QSGLVWTNCWLIRELNLPFGGMKS [ALDH8A1] a recorded protein stability index greater than or equal to 3?
Reply: No

Ask: Has SVHNDLWESWFVPDPAGIFKLNHH [GLT8D2] a recorded protein stability index greater than or equal to 3?
Reply: No
